B1: TRIM63 (parent)
chain: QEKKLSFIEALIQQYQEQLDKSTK

Variants of: B1
run-description: protein stability index of a GFP-peptide fusion (GPS, HEK-293T) (PSI 1-6); higher = more stable;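 note: lentivirally expressed fusions sorted by FACS into six bins by GFP to DsRed ratio, PSI derived from sequencing read proportions per bin multiplied by bin number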
stated-conditions: c terminus: a fixed tail appended
Binary call on protein stability index: Criterion met from 3 upward, Criterion not met beneath that.

    mutant_designation           category
 0                 E9T  Criterion not met
 1                E17A  Criterion not met
 2                Q14S      Criterion met
 3                 K4R  Criterion not met
 4                 I8Q      Criterion met
 5                 L5I  Criterion not met
 6                 K3F  Criterion not met
 7                Q18L  Criterion not met
 8                L19Q      Criterion met
 9                 K3Q  Criterion not met
10                 I8T  Criterion not met
11                A10L  Criterion not met
12                 F7V      Criterion met
13                 S6Q  Criterion not met
14                K21T  Criterion not met
15                L19D      Criterion met
16                 L5Q      Criterion met
17                 I8L  Criterion not met
18                L11H      Criterion met
19                Y15C  Criterion not met
20                 E2M  Criterion not met
21                 E9C  Criterion not met
22                K24G  Criterion not met
23                Q16R  Criterion not met
24                 E9A  Criterion not met
25                D20Y  Criterion not met
26                I12A      Criterion met
27                 Q1M  Criterion not met
28                Q13K  Criterion not met
29                L19E      Criterion met
30                I12E      Criterion met
31                Q18K  Criterion not met
32                I12K      Criterion met
33                S22N  Criterion not met
34                 E9L  Criterion not met
35                 L5G      Criterion met
36                K21C  Criterion not met
37                 F7W      Criterion met
38                E17Q  Criterion not met
